Biological target: MAO-B (amine oxidase [flavin-containing] B) (Homo sapiens)
Sequence (P27338 whole entry): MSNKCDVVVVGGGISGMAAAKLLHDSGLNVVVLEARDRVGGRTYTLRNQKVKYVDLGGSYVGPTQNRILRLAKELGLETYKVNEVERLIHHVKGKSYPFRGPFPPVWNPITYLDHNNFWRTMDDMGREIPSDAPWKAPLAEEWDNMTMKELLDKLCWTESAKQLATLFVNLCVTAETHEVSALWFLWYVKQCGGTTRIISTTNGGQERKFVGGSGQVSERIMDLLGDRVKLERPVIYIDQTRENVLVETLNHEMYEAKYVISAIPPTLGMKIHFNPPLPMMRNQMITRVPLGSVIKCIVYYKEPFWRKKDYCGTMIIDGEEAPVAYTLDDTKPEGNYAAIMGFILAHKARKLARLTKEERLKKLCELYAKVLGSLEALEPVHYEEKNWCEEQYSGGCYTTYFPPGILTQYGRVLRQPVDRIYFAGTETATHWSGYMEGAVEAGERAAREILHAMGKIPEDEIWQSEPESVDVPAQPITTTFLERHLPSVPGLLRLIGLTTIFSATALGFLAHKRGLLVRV
Assay: Inhibition of human MAO-B at 10 uM relative to control
property_label: inhibition at 10 µM (%)

smiles_text: CCCn1c(=O)c2c(nc3n2CCCN3CC(=O)N2CCN(Cc3ccc(OC)cc3)CC2)n(CCC)c1=O
inhibition at 10 µM / %: 30
--
smiles_text: Cn1c(=O)c2c(nc3n2CCCN3CC(=O)N2CCN(Cc3ccc(Cl)cc3)CC2)n(C)c1=O
inhibition at 10 µM / %: 30
--
smiles_text: C#CCn1c(=O)c2c(nc3n2CCCN3CCc2cccs2)n(C)c1=O
inhibition at 10 µM / %: 17
--
smiles_text: Cn1c(=O)c2c(nc3n2CCCN3CC(=O)N2CCN(c3ccc(Cl)cc3)CC2)n(C)c1=O
inhibition at 10 µM / %: 60
--
smiles_text: C#CCn1c(=O)c2c(nc3n2CCCN3C2CCN(Cc3ccccc3)CC2)n(C)c1=O
inhibition at 10 µM / %: 22

A: C#CCn1c(=O)c2c(nc3n2CCCN3c2cccc(Br)c2)n(C)c1=O
B: C#CCn1c(=O)c2c(nc3n2CCCN3C2CCC2)n(C)c1=O
C: CCCn1c(=O)c2c(nc3n2CCCN3CCC(=O)N2CCN(c3ccccc3)CC2)n(CCC)c1=O
Input line: Arrange the 3 molecules from largest to smallest inhibition at 10 µM. List each label, following the requested order.
Output line: A, C, B
(A: 46%, C: 30%, B: 19%)
